Target: T1, mouse NOXA1 SH3 domain (mouse, UniProt Q8CJ00 369-428)
T1 construct: mouse NOXA1, carboxy-terminal SH3 domain; source: E. coli BL21 STAR, purified (glutathione Sepharose, PreScission cleavage, Superdex 75)
T1 sequence (looked up): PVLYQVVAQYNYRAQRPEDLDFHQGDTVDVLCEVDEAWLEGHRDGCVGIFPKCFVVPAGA
Assay: ITC; MicroCal VP-ITC, 18°C; 150 mM NaCl, 1 mM DTT, 50 mM HEPES pH 7.4; typically 20–40 µM protein in the cell, 200–300 µM ligand injected; single-site binding model; averaged over three to five experiments
Settings: both partners purified
pKd: −log10 of the molar value.

binder | pKd
TAPPPTVPTRPSPGAIQSRCCTVTRRALE (also called long version of peptideA; source: synthetic peptide) [peptideA (amino acids 319–347 of human NOXO1)] | 5.23
